Attribute: EC50
Target: hEP4/Gqs5 (Homo sapiens, UniProt P35408)
Sequence (P35408 whole entry): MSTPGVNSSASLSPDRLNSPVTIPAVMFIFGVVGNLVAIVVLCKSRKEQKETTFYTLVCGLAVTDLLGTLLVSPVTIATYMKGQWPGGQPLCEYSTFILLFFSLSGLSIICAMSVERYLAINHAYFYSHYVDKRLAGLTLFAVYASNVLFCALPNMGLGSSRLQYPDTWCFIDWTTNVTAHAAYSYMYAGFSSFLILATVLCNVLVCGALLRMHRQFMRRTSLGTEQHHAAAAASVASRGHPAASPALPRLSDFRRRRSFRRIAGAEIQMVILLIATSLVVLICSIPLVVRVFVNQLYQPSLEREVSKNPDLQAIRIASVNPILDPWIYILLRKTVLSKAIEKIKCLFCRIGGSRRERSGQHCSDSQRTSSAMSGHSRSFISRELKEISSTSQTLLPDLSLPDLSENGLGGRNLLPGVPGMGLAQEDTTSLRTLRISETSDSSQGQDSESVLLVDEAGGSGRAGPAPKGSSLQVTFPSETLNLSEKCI
Experiment: FLIPR calcium signal, hEP4/Gqs5
Settings: HEK-293(EBNA) cells, read-out: EP4 Ca2+ EC50
Method: HEK-293(EBNA) cells, stably expressing one type or subtype of recombinant human prostaglandin receptors (prostaglandin receptors expressed: hDP/Gqs5; hEP1; hEP2/Gqs5; hEP3A/Gqi5; hEP4/Gqs5; hFP; hIP; hTP), are cultured in 100 mm culture dishes in high-glucose DMEM medium containing 10% fetal bovine serum, 2 mM 1-glutamine, 250 μg/ml geneticin (G418) and 200 μg/ml hygromycin B as selection markers, and 100 units/ml penicillin G, 100 μg/ml streptomycin and 0.25 μg/ml amphotericin B. […]
Write the answer as a number in nM, unit excluded.

Solved cases below.
{"compound": "CC1(C)C(=O)[C@H](CC#CCCCC(=O)O)[C@@H](/C=C/C(O)CCc2ccc3ccccc3c2)[C@@H]1O (single isomer, unassigned) [drawing 25]", "result type": "EC50", "val": 16.3}
{"compound": "CC1(C)C(=O)[C@H](C/C=C\\CCCC(=O)O)[C@@H](/C=C/C(O)CCc2ccc3ccccc3c2)[C@@H]1O (single isomer, unassigned) [drawing 24]", "result type": "EC50", "val": 1.3}
{"compound": "CC1(C)C(=O)[C@H](CC#CCCCC(=O)O)[C@@H](/C=C/C(O)CCc2ccc3ccccc3c2)[C@@H]1O (single isomer, unassigned) [drawing 26]", "result type": "EC50", "val": 8}

Consider the record given below.
Record lookup: for hEP4/Gqs5 (Homo sapiens, UniProt P35408), what EC50 belongs to CC1(C)C(=O)[C@H](C/C=C\CCCC(=O)O)[C@@H](/C=C/C(O)CCc2ccc3ccccc3c2)[C@@H]1O (single isomer, unassigned) [drawing 23] ?
0.17
